target: T1, cynomolgus complement C3b protein (cynomolgus monkey (Macaca fascicularis)); test: SPR (Biacore), C3b captured by anti-C3d antibody, Fab as analyte
T1 construct: also called cyno C3b; cynoC3b
Value type: Kd (nM)
Could you give me the number in nM? Just the number is fine.

Query: Suppose we examine the binder MOR9556 Fab format (Fab, V domains shown) VH: EVQLVESGGGLVQPGGSLRLSCAASGFTFSSYWMTWVRQAPGKGLEWVSSIKIKPDGYAASVKGRFTISRDNSKNTLYLQMNSLRAEDTAVYYCARLFYQYFARMDYWGQGTLVTVSS VL: DIQMTQSPSSLSASVGDRVTITCRASQDISNYLNWYQQKPGKAPKLLIYAASNLQSGVPSRFSGSGSGTDFTLTISSLQPEDFATYYCQQYDSYSPTFGQGTKVEIK ; what Kd value has been reported?
Response: 0.042
